Test: Aqueous (equilibrium) solubility assay
Format: physicochemical
Conditions: aqueous buffer, thermodynamic from solid; pH 4.5 buffer, 48 hrs equilibrium; read-out: solubility at pH 4.5
The reader will find reported solubility at 48 h values listed item by item below.
measured-metric: solubility at 48 h (µg/mL)

compound	measured-metric	result-number
CC(C)(C)c1cc(NC(=O)C(C)(C)S(=O)(=O)C2CCOCC2)no1 [Example 66 WO08039645]	solubility at 48 h	56
CC(C)(C)c1cc(NC(=O)C(C)(C)S(=O)(=O)c2ccc(F)cc2)no1 [Example 130 WO08014199]	solubility at 48 h	5.2
Cn1nc(C(C)(C)C)cc1NC(=O)C(C)(C)S(=O)(=O)c1ccc(F)cc1 [Example 251 WO08014199]	solubility at 48 h	137
CCC(C)S(=O)(=O)C(C)(C)C(=O)Nc1cc(C(C)(C)C)on1 (centres unmarked) [Example 42 WO08039645]	solubility at 48 h	20
CC(C)(C)n1nnc(NC(=O)C(C)(C)S(=O)(=O)c2ccc(F)cc2)n1 [Table II compound 6]	solubility at 48 h	133
CCC(C)S(=O)(=O)C(C)(C)C(=O)Nc1nc(C(C)(C)C)cs1 (centres unmarked) [Example 44 WO08039645]	solubility at 48 h	13
Cn1nc(C(C)(C)C)cc1NC(=O)C(C)(C)S(=O)(=O)C1CCOCC1 [Example 69 WO08039645]	solubility at 48 h	1040
CC(C)(C)c1cc(NC(=O)C(C)(C)S(=O)(=O)CC2CCOCC2)no1 [Example 56 WO08039645]	solubility at 48 h	47
CCC(C)S(=O)(=O)C(C)(C)C(=O)Nc1cc(C(C)(C)C)nn1C (centres unmarked) [Example 43 WO08039645]	solubility at 48 h	1260
CC(C)(C)c1csc(NC(=O)C(C)(C)S(=O)(=O)CC2CCOCC2)n1 [Example 57 WO08039645]	solubility at 48 h	383
CC(C)(C)c1cc(NC(=O)C(C)(C)S(=O)(=O)c2ccc(F)cc2)on1 [Example 248 WO08014199]	solubility at 48 h	1.68
CC(C)(C)c1csc(NC(=O)C(C)(C)S(=O)(=O)c2ccc(F)cc2)n1 [Example 252 WO08014199]	solubility at 48 h	1.74
CC(C)(C)c1csc(NC(=O)C(C)(C)S(=O)(=O)C2CCOCC2)n1 [Example 67 WO08039645]	solubility at 48 h	15
Cn1nc(C(C)(C)C)cc1NC(=O)C(C)(C)S(=O)(=O)CC1CCOCC1 [Example 59 WO08039645]	solubility at 48 h	396
CC(C)(C)n1nnc(NC(=O)C(C)(C)S(=O)(=O)CC2CCOCC2)n1 [Table II compound 2]	solubility at 48 h	391
CC[C@H](C)S(=O)(=O)C(C)(C)C(=O)Nc1nnn(C(C)(C)C)n1 [Table II compound 5]	solubility at 48 h	1210

---

Collected pEC50 values appear next to each entry.
Molecular target: human CB1R (Homo sapiens)
Construct: host or cells: CHO cells
Sequence (P21554 whole entry): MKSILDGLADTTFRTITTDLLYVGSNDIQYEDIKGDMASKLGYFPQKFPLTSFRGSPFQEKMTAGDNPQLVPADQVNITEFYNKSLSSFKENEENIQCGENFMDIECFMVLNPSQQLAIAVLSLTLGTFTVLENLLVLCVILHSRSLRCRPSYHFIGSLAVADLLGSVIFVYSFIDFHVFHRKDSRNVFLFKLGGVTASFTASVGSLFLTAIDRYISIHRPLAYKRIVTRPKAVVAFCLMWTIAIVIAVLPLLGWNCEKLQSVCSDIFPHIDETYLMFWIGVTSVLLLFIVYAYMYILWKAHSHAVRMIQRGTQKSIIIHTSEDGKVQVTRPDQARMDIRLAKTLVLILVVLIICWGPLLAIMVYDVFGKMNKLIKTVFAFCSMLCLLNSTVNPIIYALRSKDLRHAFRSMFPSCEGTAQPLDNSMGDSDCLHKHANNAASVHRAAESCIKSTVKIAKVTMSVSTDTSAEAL
Experiment: CB1R mediated modulation of cAMP synthesis
Format: cell-based
Settings: CB1 CAMP EC50, Table XI; CHO cells expressing human CB1R, forskolin-stimulated cAMP
pEC50: −log10 of the molar value.

compound	pEC50
CC(C)(C)n1nnc(NC(=O)C(C)(C)S(=O)(=O)CC2CCOCC2)n1 [Table II compound 2]	< 4.30
CC(C)(C)c1cc(NC(=O)C(C)(C)S(=O)(=O)CC2CCOCC2)no1 [Example 56 WO08039645]	< 4.70
CC(C)(C)n1nnc(NC(=O)C(C)(C)S(=O)(=O)C2CCOCC2)n1 [Table II compound 1]	< 4.30
CCC(C)S(=O)(=O)C(C)(C)C(=O)Nc1cc(C(C)(C)C)on1 (centres unmarked) [Example 42 WO08039645]	< 4.70
CC(C)(C)c1cc(NC(=O)C(C)(C)S(=O)(=O)C2CCOCC2)no1 [Example 66 WO08039645]	< 4.30
